target: Phosphatidylinositol 4,5-bisphosphate 3-kinase catalytic subunit gamma isoform (Homo sapiens); assay: Inhibition of PI3Kgamma (unknown origin) assessed as decrease in fluorescence intensity using phosphorylated substrate
Sequence (P48736 whole entry, canonical isoform): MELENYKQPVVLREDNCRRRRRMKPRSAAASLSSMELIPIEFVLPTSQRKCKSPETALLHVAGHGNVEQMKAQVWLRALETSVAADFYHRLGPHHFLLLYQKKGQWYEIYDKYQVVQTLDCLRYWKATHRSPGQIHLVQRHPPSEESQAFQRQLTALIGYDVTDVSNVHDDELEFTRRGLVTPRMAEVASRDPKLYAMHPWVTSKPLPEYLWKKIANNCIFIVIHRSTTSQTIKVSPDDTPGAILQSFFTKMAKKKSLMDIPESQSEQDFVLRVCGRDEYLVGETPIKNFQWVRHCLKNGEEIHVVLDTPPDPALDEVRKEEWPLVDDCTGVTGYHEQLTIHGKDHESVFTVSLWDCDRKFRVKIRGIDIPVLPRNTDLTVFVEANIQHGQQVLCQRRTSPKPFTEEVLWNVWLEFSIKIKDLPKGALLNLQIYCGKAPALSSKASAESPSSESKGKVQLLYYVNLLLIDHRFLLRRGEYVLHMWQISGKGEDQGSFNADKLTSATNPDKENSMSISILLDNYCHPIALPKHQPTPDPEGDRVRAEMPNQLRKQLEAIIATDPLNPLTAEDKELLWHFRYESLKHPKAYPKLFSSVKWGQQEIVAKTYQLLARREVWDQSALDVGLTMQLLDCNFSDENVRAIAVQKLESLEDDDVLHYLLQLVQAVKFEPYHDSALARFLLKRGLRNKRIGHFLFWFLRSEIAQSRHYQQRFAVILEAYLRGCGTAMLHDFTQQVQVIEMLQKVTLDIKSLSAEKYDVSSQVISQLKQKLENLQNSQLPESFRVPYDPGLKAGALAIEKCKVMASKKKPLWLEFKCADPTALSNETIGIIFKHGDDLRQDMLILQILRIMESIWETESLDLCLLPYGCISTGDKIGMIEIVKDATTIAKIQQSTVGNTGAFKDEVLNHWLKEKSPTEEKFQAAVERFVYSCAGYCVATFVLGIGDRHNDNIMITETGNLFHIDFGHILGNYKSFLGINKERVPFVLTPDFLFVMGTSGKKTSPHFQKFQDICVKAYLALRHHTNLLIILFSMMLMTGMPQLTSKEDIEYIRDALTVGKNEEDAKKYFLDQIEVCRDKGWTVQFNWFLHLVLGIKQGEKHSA
Would you mind telling me the reported IC50 of each entry?
Give bare numbers, in nM.

O=c1c2c(F)cccc2nc(CSc2ncnc3[nH]cnc23)n1-c1ccccc1Cl = 13100
Cc1ccc(CN2C(=O)COc3ccc(/C=C4\SC(=S)NC4=O)cc32)cc1 = 124

I need IC50 for every entry listed below, if you could help.
1. COc1cc(C(CC(=O)O)CC(=O)O)ccc1OCc1ccccc1
2. Cc1cc(F)ccc1Oc1cccc2c(=O)cc(N3CCOCC3)[nH]c12
3. O=c1cc(N2CCOCC2)[nH]c2c(Oc3ccccc3F)cccc12
4. Cc1ccc(CN2C(=O)COc3ccc(/C=C4\SC(=S)NC4=O)cc32)cc1C
5. O=c1cc(N2CCOCC2)[nH]c2c(Cc3ccccc3)cccc12

Reply |
1: 5880; 2: 18100; 3: 7260; 4: 11; 5: 10900

I need IC50 for every entry listed below, if you could help.
1. O=C1NC(=S)S/C1=C\c1ccc(-c2cc([N+](=O)[O-])ccc2Br)o1
2. CCCCOc1ccc(C(CC(=O)O)CC(=O)O)cc1OC
3. O=C1NC(=S)S/C1=C\c1ccc2c(c1)N(CCc1ccc(F)c(F)c1)C(=O)CO2

Reply |
3600
134
20.4

I need IC50 for every entry listed below, if you could help.
1. Cc1ccc(CCN2C(=O)COc3ccc(/C=C4\SC(=S)NC4=O)cc32)cc1
2. Cc1cc(C)cc(CCN2C(=O)COc3ccc(/C=C4\SC(=S)NC4=O)cc32)c1
3. O=C1NC(=S)S/C1=C\c1ccc2c(c1)N(CCc1cccc(Cl)c1)C(=O)CO2
4. COc1ccc2cc(C(=O)CCCC(C)C(=O)O)ccc2c1 (stereo unspecified)
5. Cc1cccc(CCN2C(=O)COc3ccc(/C=C4\SC(=S)NC4=O)cc32)c1
6. COc1cc2cc(C(=O)O)[nH]c2cc1OCc1ccccc1
7. O=C1NC(=S)S/C1=C\c1ccc2c(c1)N(CCc1ccccc1)C(=O)CO2

Reply |
1: 37.3; 2: 11.2; 3: 18; 4: 5180; 5: 20.9; 6: 105; 7: 103

I need IC50 for every entry listed below, if you could help.
1. COc1ccccc1CNc1cc(C)cc2c(=O)cc(N3CCOCC3)[nH]c12
2. O=C1NC(=S)S/C1=C\c1ccc2c(c1)N(Cc1ccc(C(F)(F)F)cc1)C(=O)CO2
3. O=c1c2ccccc2nc(CSc2ncnc3[nH]cnc23)n1-c1ccccc1Cl
4. O=C1NC(=S)S/C1=C\c1ccc2c(c1)N(CCc1ccc(C(F)(F)F)cc1)C(=O)CO2

Reply |
1. 10700
2. 116
3. 27900
4. 8.1

* * *

target: Phosphatidylinositol 4,5-bisphosphate 3-kinase catalytic subunit gamma isoform (Homo sapiens, UniProt P48736); assay: Inhibition of PI3Kgamma (unknown origin) assessed as decrease in fluorescence intensity using phosphorylated substrate
pIC50: −log10 of the molar value.
// condition not met strictly below 7 in pIC50; condition met otherwise

See these solved cases before continuing.
COc1cc(CCN2C(=O)COc3ccc(/C=C4\SC(=S)NC4=O)cc32)cc(OC)c1 = condition met
O=c1c2c(Cl)cccc2nc(CSc2ncnc3[nH]cnc23)n1-c1ccccc1F = condition not met
O=c1c2c(Cl)cccc2nc(CSc2ncnc3[nH]cnc23)n1-c1ccccc1-c1ccccc1 = condition not met

For the next question, use this compound.
Ask | Assess whether reported pIC50 for "O=c1c2ccc(F)cc2nc(CSc2ncnc3[nH]cnc23)n1-c1ccccc1Cl" sits at 7 or higher.
Reply | condition not met

* * *

target: Phosphatidylinositol 4,5-bisphosphate 3-kinase catalytic subunit gamma isoform (Homo sapiens); test: Inhibition of PI3Kgamma (unknown origin) assessed as decrease in fluorescence intensity using phosphorylated substrate
Reported endpoint: IC50 (nM)
One number for each entry, in nM.

I need IC50 for every entry listed below, if you could help.
1. CC(C)(C)c1ccc(CCN2C(=O)COc3ccc(/C=C4\SC(=S)NC4=O)cc32)cc1
2. COc1cc(O)cc(/C=C2\SC(=S)NC2=O)c1
3. COc1ccc(C(CC(=O)c2ccc3c(c2)OCO3)C(=O)O)cc1OC (stereo not given)
4. COc1ccccc1-n1c(CSc2ncnc3[nH]cnc23)nc2cccc(C)c2c1=O
5. O=c1c2ccccc2nc(CSc2ncnc3[nH]cnc23)n1N1CCOCC1

Reply |
[140, 328, 234, 1820, 138000]

* * *

target: Phosphatidylinositol 4,5-bisphosphate 3-kinase catalytic subunit gamma isoform (Homo sapiens); assay: Inhibition of PI3Kgamma (unknown origin) assessed as decrease in fluorescence intensity using phosphorylated substrate at 10 uM
Sequence (P48736 whole entry, looked up, canonical isoform): as the sequence (P48736 whole entry, canonical isoform) above
Residues, ends and D or L forms follow the SMILES beside them. *: point of attachment. Cbz = O=C(OCc1ccccc1)*; Bn = c1ccc(C*)cc1
Reported endpoint: inhibition (%)
Answers are plain numbers, in %.

Worked examples follow.
O=S(=O)(O)c1ccc2c(/N=N/c3ccccc3Cl)c(O)ccc2c1 = 76
COC[C@H]1OC(=O)c2coc3c2[C@@]1(C)C1=C(C3=O)[C@@H]2CCC(=O)[C@@]2(C)C[C@H]1OC(C)=O = 100
COc1ccc(C(CC(=O)O)c2cc(OC)c(OC)c(OC)c2)cc1OC (centres undefined) = 58
CC(C)CC(NC(=O)OCc1ccccc1)C(=O)NC(Cc1ccc(O)cc1)C(=O)O (stereo not drawn) (Cbz-Leu-Tyr-OH; configuration not given here) = 57
CCN1C(=O)/C(=C\c2cc([N+](=O)[O-])ccc2OCC(=O)O)SC1=S = 81
O=C(O)Cc1ccc(OCCCOc2ccc(CC(=O)O)cc2)cc1 = 24

I need inhibition for every entry listed below, if you could help.
1. CCOc1ccc(Nc2ccc3c(O)cc(S(=O)(=O)O)cc3c2)cc1
2. O=C(O)CCC(=O)c1ccc(Oc2ccc(Cl)cc2)cc1
3. O=C(NC(CSCc1ccccc1)C(=O)NC(Cc1ccc(O)cc1)C(=O)O)OCc1ccccc1 (centres undefined) (Cbz-Cys(Bn)-Tyr-OH; configuration not given here)
4. Cc1cc2c(cc1C(=O)CCC(=O)O)CC1(C2)Cc2cc(C)c(C(=O)CCC(=O)O)cc2C1
5. COc1cc2cc3c4cc(OC)c(OC)cc4cc[n+]3c(CCC(=O)O)c2cc1OC
6. O=C(CCCCn1cnc2c(SCc3ccccc3)ncnc21)Nc1ccc(C(=O)O)c(O)c1

Reply |
[72, 51, 40, 67, 57, 37]

I need inhibition for every entry listed below, if you could help.
1. COc1ccc2cc(C(=O)CCCC(C)C(=O)O)ccc2c1 (centres undefined)
2. COc1cc(C[C@@H](CC(=O)c2ccc3c(c2)OCO3)C(=O)O)cc(OC)c1OC
3. Cc1cc(C(=O)O)c(C)cc1SSc1cc(C)c(C(=O)O)cc1C
4. O=S(=O)(O)c1ccc(OCCCCCCCCOc2ccc(S(=O)(=O)O)cc2)cc1

Reply |
[58, 83, 83, 83]

I need inhibition for every entry listed below, if you could help.
1. O=C(O)Cc1ccc(OCCCCCOc2ccc(CC(=O)O)cc2)cc1
2. CCCCOc1ccc(CCC(=O)O)cc1OCCCC

Reply |
7
20

* * *

molecular target: Phosphatidylinositol 4,5-bisphosphate 3-kinase catalytic subunit gamma isoform (Homo sapiens, UniProt P48736); assay: Inhibition of PI3Kgamma (unknown origin) assessed as decrease in fluorescence intensity using phosphorylated substrate
Would you mind telling me the reported IC50 of each entry?
Give bare numbers, in µM.

Worked examples follow.
Cc1cccc2nc(CSc3ncnc4[nH]cnc34)n(-c3ccccc3Cl)c(=O)c12 = 6.17
CC(C)(C)c1ccc(CN2C(=O)COc3ccc(/C=C4\SC(=S)NC4=O)cc32)cc1 = 0.0102
COc1ccccc1-c1ccc(/C=C2\SC(=O)NC2=O)o1 = 1
O=C1NC(=S)S/C1=C\c1ccc2c(c1)N(Cc1ccccc1)C(=O)CO2 = 0.097
O=C(O)c1ccccc1SC(Sc1ccccc1C(=O)O)c1cccc(Cl)c1 = 0.187
O=C(COc1ccc(Cl)cc1C(=O)O)Nc1cccc(NC(=O)Nc2cccc(S(=O)(=O)F)c2)c1 = 9.16
O=C(O)C[S+]([O-])c1ccc2c3c(cccc13)C(=O)c1ccccc1-2 (stereo unspecified) = 1.57
O=c1c2c(Cl)cccc2nc(CSc2ncnc3[nH]cnc23)n1-c1ccccc1Cl = 5.45
COc1cccc(CCN2C(=O)COc3ccc(/C=C4\SC(=S)NC4=O)cc32)c1 = 0.0112
Cc1cccc(CN2C(=O)COc3ccc(/C=C4\SC(=S)NC4=O)cc32)c1 = 0.184

I need IC50 for every entry listed below, if you could help.
1. COc1ccc(CCN2C(=O)COc3ccc(/C=C4\SC(=S)NC4=O)cc32)cc1
2. O=c1cc(N2CCOCC2)[nH]c2c(Oc3ccc(F)cc3)cccc12
3. O=C1NC(=S)S/C1=C\c1ccc2c(c1)N(CCc1ccc(Cl)c(Cl)c1)C(=O)CO2
4. O=C1NC(=S)S/C1=C\c1ccc2c(c1)N(Cc1ccc(Cl)cc1)C(=O)CO2
5. O=C1NC(=S)S/C1=C\c1ccc2c(c1)N(CCc1ccc(Cl)cc1)C(=O)CO2
6. COc1ccc(C(CC(=O)O)c2cc(OC)c(OC)c(OC)c2)cc1OC (stereo unspecified)

Reply |
[0.0277, 18.1, 0.0184, 0.03, 0.0201, 6.07]

I need IC50 for every entry listed below, if you could help.
1. CCCCn1c(CSc2ncnc3[nH]cnc23)nc2ccccc2c1=O
2. O=C1NC(=S)S/C1=C\c1ccc2c(c1)N(CCc1ccc(Br)cc1)C(=O)CO2

Reply |
[218, 0.0099]

I need IC50 for every entry listed below, if you could help.
1. Cc1cc(C(=O)O)c(C)cc1SSc1cc(C)c(C(=O)O)cc1C
2. O=c1cc(N2CCOCC2)[nH]c2c(OCc3ccccc3)cccc12
3. Cc1ccccc1-n1c(CSc2ncnc3[nH]cnc23)nc2cccc(Cl)c2c1=O

Reply |
1: 1.46; 2: 10.9; 3: 2.54
